- Test system: MYCN
- ASSAY_EXPLANATION: 3' UTR reporter interaction score (median-centred robust z-score of log2 firefly/Renilla activity); higher = less repression of the 3' UTR reporter
- MEASUREMENT_CONDITIONS: HEK293T; 48 h
Entries get a class label from measured 3' UTR reporter interaction score. See ranges: class 1 (below -0.3), class 2 (-0.3 to below 0.2), class 3 (0.2 or more)

# SEQ_TEXT, LABEL_CLASS
data = [
    ("UGUCUGCCCGCAUGCCUGCCUCU", "class 1"),
    ("GGUCCAGAGGGGAGAUAGG", "class 1"),
    ("UAGCUUAUCAGACUGAUGUUGA", "class 1"),
    ("ACUCCAGCCCCACAGCCUCAGC", "class 2"),
    ("CUGUGCGUGUGACAGCGGCUGA", "class 3"),
    ("UCCAGCUCCUAUAUGAUGCCUUU", "class 1"),
    ("UAAUACUGCCUGGUAAUGAUGAC", "class 2"),
    ("CCCAGAUAAUGGCACUCUCAA", "class 1"),
    ("CUCCUGACUCCAGGUCCUGUGU", "class 2"),
    ("UGAGCUAAAUGUGUGCUGGGA", "class 2"),
    ("AACAGGUGACUGGUUAGACAA", "class 1"),
    ("AGGCACGGUGUCAGCAGGC", "class 2"),
    ("AUGGAGAUAGAUAUAGAAAU", "class 1"),
    ("UAAUACUGUCUGGUAAAACCGU", "class 3"),
    ("UGAGAUGAAGCACUGUAGCUCA", "class 3"),
    ("CGCAUCCCCUAGGGCAUUGGUGU", "class 2"),
    ("UUUUGCACCUUUUGGAGUGAA", "class 3"),
    ("UAAUGCCCCUAAAAAUCCUUAU", "class 1"),
    ("UGGACGGAGAACUGAUAAGGGU", "class 2"),
    ("AUCAACAGACAUUAAUUGGGCGC", "class 1"),
    ("UGAGAACUGAAUUCCAUAGGCU", "class 2"),
    ("AAAGUGCUUCCUUUUAGAGGC", "class 3"),
    ("UCACAAUGCUGACACUCAAACUGCUGAC", "class 2"),
    ("UUUGGCACUAGCACAUUUUUGC", "class 3"),
]

* * *

- System: MYT1L
- ASSAY_EXPLANATION: 3' UTR reporter interaction score (median-centred robust z-score of log2 firefly/Renilla activity); higher = less repression of the 3' UTR reporter
- MEASUREMENT_CONDITIONS: HEK293T; 48 h
Where 3' UTR reporter interaction score equals or exceeds -1, the correct label is Condition met; where it does not, the label is Condition not met.

# SEQ_TEXT, LABEL_CLASS
measured = [
    ("CAAAGAGGAAGGUCCCAUUAC", "Condition met"),
    ("UGGAAGACUAGUGAUUUUGUUG", "Condition not met"),
    ("CAAAGCGCUUCUCUUUAGAGUG", "Condition met"),
    ("AUGCACCUGGGCAAGGAUUCUG", "Condition met"),
    ("UUCUCCAAAAGGGAGCACUUUC", "Condition met"),
]
